System: mice
Assay: extension of Noludar sleeping time by synergists
Assay type: in vivo, Swiss albino white male mice
Conditions: Noludar 110 mg/K, synergist 110 mg/K; treated/control

# Molecule, System Tested, Relative Sleeping Time
rows = [
    ("C#CCOCc1c(Cl)cccc1Cl", "mice", 2.2),
    ("C#CCON=Cc1ccc(N(C)C)cc1", "mice", 1.0),
    ("C#CCOCc1c(Cl)cccc1[N+](=O)[O-]", "mice", 2.4),
    ("C#CCOCc1c(Cl)ccc(Cl)c1Cl", "mice", 1.1),
    ("C#CCOC(c1ccc(Cl)cc1)C(C)[N+](=O)[O-] (stereo not drawn)", "mice", 2.5),
    ("C#CCn1nc(Cl)c2ccccc21", "mice", 1.0),
    ("C#CCON=Cc1cccc2ccccc12", "mice", 2.1),
    ("C#CCOCc1cccc([N+](=O)[O-])c1Cl", "mice", 1.8),
    ("C#CCOCc1ccc([N+](=O)[O-])c(Cl)c1", "mice", 2.4),
    ("C#CCn1ncc2cc([N+](=O)[O-])ccc21", "mice", 1.0),
    ("C#CCOCc1ccc(Cl)cc1[N+](=O)[O-]", "mice", 2.2),
    ("C#CCOCc1ccc([N+](=O)[O-])cc1Cl", "mice", 1.9),
    ("C#CCOCc1ccc([N+](=O)[O-])cc1", "mice", 2.1),
    ("C#CCON=C(C)c1ccc2ccccc2c1", "mice", 1.4),
    ("C#CCON=C(C)c1ccc(Cl)cc1", "mice", 1.5),
    ("C#CCOCc1cccc2ccccc12", "mice", 1.7),
    ("C#CCON=Cc1cccc([N+](=O)[O-])c1", "mice", 2.4),
    ("C#CCOCc1ccc(Cl)c(Cl)c1", "mice", 1.3),
    ("C#CCn1ncc2ccc(Cl)cc21", "mice", 1.5),
    ("C#CCOCc1ccc(Cl)c(Cl)c1Cl", "mice", 1.0),
    ("CCOCCOCCOC(C)Oc1ccc2c(c1)OCO2 (stereo not drawn) [Sesoxane, reference compound]", "mice", 3.1),
    ("C#CCOCc1cccc(Cl)c1[N+](=O)[O-]", "mice", 1.8),
    ("C#CCON=Cc1ccc(Cl)cc1Cl", "mice", 1.2),
    ("C#CCOC(c1ccc(Cl)cc1Cl)C(C)[N+](=O)[O-] (stereo not drawn)", "mice", 2.7),
    ("C#CCOCc1ccc(Cl)c([N+](=O)[O-])c1", "mice", 2.1),
    ("C#CCOCc1ccccc1[N+](=O)[O-]", "mice", 1.5),
    ("C#CCOCc1cc(Cl)c(Cl)cc1Cl", "mice", 1.3),
]

====

System: mice
Assay: acute toxicity of Dimetilan alone and of synergist alone (intraperitoneal)
Type: in vivo, Swiss albino white male mice
Conditions: synergist alone 1000 mg/kg ip, 72 hours, of eight mice
Observation Type: number of mice dead

# Compound, Observation Type, Obs Value
data = [
    ("C#CCOCc1c(Cl)cccc1Cl", "number of mice dead", 0),
    ("C#CCOCc1c(Cl)cccc1[N+](=O)[O-]", "number of mice dead", 1),
    ("CCOCCOCCOC(C)Oc1ccc2c(c1)OCO2 (stereo not drawn) [Sesoxane, reference compound]", "number of mice dead", 1),
    ("C#CCOCc1ccc([N+](=O)[O-])cc1", "number of mice dead", 7),
    ("C#CCOCc1ccc(Cl)c(Cl)c1Cl", "number of mice dead", 0),
    ("C#CCOCc1ccccc1[N+](=O)[O-]", "number of mice dead", 2),
]
